The origin of these recorded values is ChEMBL document CHEMBL1126152.

- Tested on: Escherichia coli
- assayRemarks: Compound was tested for […] against Escherichia coli A 15119 after oral administration of drug in mice
- Type: functional
- setupConditions: read-out: PD50
// returns Not met unless ED50 is strictly below 2 mg/kg, in which case Met

| compound | testSystem | discreteLabel |
| --- | --- | --- |
| O=C(O)c1cn(C2CC2)c2nc(N3CCNCC3)c(F)cc2c1=O | Escherichia coli | Met |
| CN[C@H]1CCN(c2nc3c(c(C)c2F)c(=O)c(C(=O)O)cn3-c2ccc(F)cc2F)C1 | Escherichia coli | Not met |
| Cc1c(F)c(N2CC[C@H](N)C2)nc2c1c(=O)c(C(=O)O)cn2-c1ccc(F)cc1 | Escherichia coli | Not met |
| O=C(O)c1cn(C2CC2)c2cc(N3CCNCC3)c(F)cc2c1=O [CIPROFLOXACIN] | Escherichia coli | Met |
| Cc1c(F)c(N2CC3CC2CN3)nc2c1c(=O)c(C(=O)O)cn2C1CC1 (centres undefined) | Escherichia coli | Met |
| NC1CCN(c2nc3c(cc2F)c(=O)c(C(=O)O)cn3-c2ccc(F)cc2F)C1 (centres undefined) [TOSUFLOXACIN] | Escherichia coli | Met |
| Cc1c(F)c(N2CCNCC2)nc2c1c(=O)c(C(=O)O)cn2C1CC1 | Escherichia coli | Met |
| Cc1c(F)c(N2CC[C@H](N)C2)nc2c1c(=O)c(C(=O)O)cn2-c1ccc(F)cc1F | Escherichia coli | Met |
| Cc1c(F)c(N2CC[C@H](N)C2)nc2c1c(=O)c(C(=O)O)cn2C1CC1 | Escherichia coli | Met |

====

Parameter: MIC. Scope: all listed entries.
- Tested on: Klebsiella pneumoniae
- assayRemarks: In vitro for antibacterial activity against Klebsiella pneumoniae
- Format: functional

| compound | MIC [µg/mL] |
| --- | --- |
| NC1CCN(c2nc3c(cc2F)c(=O)c(C(=O)O)cn3-c2ccc(F)cc2F)C1 (stereo not given) | 0.016 |
| Cc1c(F)c(N2CCNCC2)nc2c1c(=O)c(C(=O)O)cn2-c1ccc(F)cc1F | 0.03 |
| Cc1c(F)c(N2CC3CC2CN3)nc2c1c(=O)c(C(=O)O)cn2-c1ccc(F)cc1F (stereo not given) | 0.06 |
| O=C(O)c1cn(-c2ccc(F)cc2F)c2nc(N3CCNCC3)c(F)cc2c1=O | 0.03 |
| O=C(O)c1cn(C2CC2)c2nc(N3CC4CC3CN4)c(F)cc2c1=O (stereo not given) | 0.06 |
| N[C@H]1CCN(c2nc3c(cc2F)c(=O)c(C(=O)O)cn3C2CC2)C1 | 0.004 |
| N[C@H]1CCN(c2nc3c(c(-c4ccccc4)c2F)c(=O)c(C(=O)O)cn3C2CC2)C1 | 2 |
| Cc1c(F)c(N2CC[C@H](N)C2)nc2c1c(=O)c(C(=O)O)cn2-c1ccc(F)cc1 | 0.002 |
| O=C(O)c1cn(C2CC2)c2cc(N3CCNCC3)c(F)cc2c1=O | 0.06 |
| CCc1c(F)c(N2CCNCC2)nc2c1c(=O)c(C(=O)O)cn2C1CC1 | 1 |
| Cc1c(F)c(N2CC[C@H](N)C2)nc2c1c(=O)c(C(=O)O)cn2-c1ccc(F)cc1F | 0.002 |
| Cc1c(F)c(N2CCNCC2)nc2c1c(=O)c(C(=O)O)cn2C(C)(C)C | 0.06 |
| CC(C)(C)n1cc(C(=O)O)c(=O)c2cc(F)c(N3CCNCC3)nc21 | 0.03 |
| Cc1c(F)c(N2CC3CC2CN3)nc2c1c(=O)c(C(=O)O)cn2C1CC1 (stereo not given) | 0.002 |
| Cc1c(F)c(N2CC[C@H](N)C2)nc2c1c(=O)c(C(=O)O)cn2C(C)(C)CF | 0.03 |
| CCn1cc(C(=O)O)c(=O)c2c(C)c(F)c(N3CC[C@H](N)C3)nc21 | 0.016 |
| CN[C@H]1CCN(c2nc3c(c(C)c2F)c(=O)c(C(=O)O)cn3-c2ccc(F)cc2F)C1 | 0.016 |
| Cc1c(F)c(N2CC[C@H](N)C2)nc2c1c(=O)c(C(=O)O)cn2C1CC1 | 0.004 |
| CC(C)(C)n1cc(C(=O)O)c(=O)c2cc(F)c(N3CC[C@H](N)C3)nc21 | 0.03 |
| Cc1c(F)c(N2CC3CC2CN3)nc2c1c(=O)c(C(=O)O)cn2C(C)(C)C (stereo not given) | 0.06 |

====

Parameter: MIC. Scope: all listed entries.
- Tested on: Streptococcus pneumoniae
- assayRemarks: Antibacterial activity against Streptococcus pneumoniae
- Format: functional

| molecule | MIC / µg/mL |
| --- | --- |
| CC(C)(C)n1cc(C(=O)O)c(=O)c2cc(F)c(N3CC4CC3CN4)nc21 (stereo not drawn) | 0.13 |
| Cc1c(F)c(N2CC[C@H](N)C2)nc2c1c(=O)c(C(=O)O)cn2C1CC1 | 0.13 |
| Cc1c(F)c(N2CCNCC2)nc2c1c(=O)c(C(=O)O)cn2C1CC1 | 1 |
| CCn1cc(C(=O)O)c(=O)c2c(C)c(F)c(N3CC[C@H](N)C3)nc21 | 0.5 |
| Cc1c(F)c(N2CC3CCC2CN3)nc2c1c(=O)c(C(=O)O)cn2C1CC1 (stereo not drawn) | 0.13 |
| O=C(O)c1cn(-c2ccc(F)cc2F)c2nc(N3CCNCC3)c(F)cc2c1=O | 0.5 |
| O=C(O)c1cn(-c2ccc(F)cc2F)c2nc(N3CC4CC3CN4)c(F)cc2c1=O (stereo not drawn) | 0.25 |
| N[C@H]1CCN(c2nc3c(c(-c4ccccc4)c2F)c(=O)c(C(=O)O)cn3C2CC2)C1 | 8 |

====

- Test system: Streptococcus pneumoniae
- assayRemarks: animal or person
- Type: functional
- setupConditions: in Mus musculus, po, read-out: PD50
- Description: Compound was tested for acute toxicity against Streptococcus pneumoniae A 9585 after oral administration of drug in mice
parameter: ED50

| structureSmiles | parameter | observedValue |
| --- | --- | --- |
| O=C(O)c1cn(C2CC2)c2cc(N3CCNCC3)c(F)cc2c1=O | ED50 | > 50 mg/kg |
| Cc1c(F)c(N2CCNCC2)nc2c1c(=O)c(C(=O)O)cn2C1CC1 | ED50 | > 50 mg/kg |
| Cc1c(F)c(N2CC[C@H](N)C2)nc2c1c(=O)c(C(=O)O)cn2C(C)(C)C | ED50 | > 25 mg/kg |

====

- Tested on: Streptococcus pneumoniae
- assayRemarks: Antibacterial activity against Streptococcus pneumoniae
- Assay type: functional
Parameter: MIC. Scope: all listed entries.
parameter: MIC (µg/mL)

| compound | observedValue |
| --- | --- |
| CN[C@H]1CCN(c2nc3c(c(C)c2F)c(=O)c(C(=O)O)cn3-c2ccc(F)cc2F)C1 | 0.06 |
| CCc1c(F)c(N2CC[C@H](N)C2)nc2c1c(=O)c(C(=O)O)cn2C1CC1 | 1 |
| CC(C)(CF)n1cc(C(=O)O)c(=O)c2cc(F)c(N3CC[C@H](N)C3)nc21 | 0.03 |
| Cc1c(F)c(N2CC[C@H](N)C2)nc2c1c(=O)c(C(=O)O)cn2-c1ccc(F)cc1 | 0.03 |
| Cc1c(F)c(N2CC3CC2CN3)nc2c1c(=O)c(C(=O)O)cn2C(C)(C)C (stereo not given) | 0.25 |
